biological target: UBE2L3; assay: reporter assay of Huesken 2005; conditions: siRNA
Oligonucleotides are written 5' to 3', each unit as a sugar letter and its base; * is a phosphorothioate linkage, no mark a phosphodiester; rarer units and linkages stand in square brackets, end groups in braces. Plain capitals give the bases only. d = 2'-deoxy (DNA); r = 2'-OH (RNA)
Classify as follows. Reported normalised inhibition (eCFP-eYFP dual reporter) greater than or equal to 80%: Y. Reported normalised inhibition (eCFP-eYFP dual reporter) below: N.

| substance | class |
| --- | --- |
| sense rGrUrCrUrGrUrCrUrGrCrCrArGrUrArArUrUrAdTdT / antisense rUrArArUrUrArCrUrGrGrCrArGrArCrArGrArCdCdT | Y |
| sense rGrCrUrGrArCrCrUrArGrCrUrGrArArGrArArUdTdT / antisense rArUrUrCrUrUrCrArGrCrUrArGrGrUrCrArGrCdCdC | N |
| sense rCrUrGrUrCrUrGrCrCrArGrUrArArUrUrArGrUdTdT / antisense rArCrUrArArUrUrArCrUrGrGrCrArGrArCrArGdAdC | N |
| sense rCrCrArGrUrArArUrUrArGrUrGrCrCrGrArArAdTdT / antisense rUrUrUrCrGrGrCrArCrUrArArUrUrArCrUrGrGdCdA | Y |
| sense rCrGrGrGrCrUrGrArCrCrUrArGrCrUrGrArArGdTdT / antisense rCrUrUrCrArGrCrUrArGrGrUrCrArGrCrCrCrGdAdA | N |
| sense rCrCrArArGrUrArArUrCrCrArGrUrCrCrCrUrCdTdT / antisense rGrArGrGrGrArCrUrGrGrArUrUrArCrUrUrGrGdTdC | N |
| sense rGrGrUrCrUrGrUrCrUrGrCrCrArGrUrArArUrUdTdT / antisense rArArUrUrArCrUrGrGrCrArGrArCrArGrArCrCdTdG | N |
| sense rArCrCrArArGrUrArArUrCrCrArGrUrCrCrCrUdTdT / antisense rArGrGrGrArCrUrGrGrArUrUrArCrUrUrGrGrUdCdG | Y |
| sense rGrCrArGrGrUrCrUrGrUrCrUrGrCrCrArGrUrAdTdT / antisense rUrArCrUrGrGrCrArGrArCrArGrArCrCrUrGrCdCdC | N |
| sense rArGrCrCrUrGrArGrCrArCrCrCrGrCrUrUrCrGdTdT / antisense rCrGrArArGrCrGrGrGrUrGrCrUrCrArGrGrCrUdGdG | N |

* * *

# Lookup of reported normalised inhibition (eCFP-eYFP dual reporter) keyed by entry
target: SOST; assay: reporter assay of Huesken 2005; settings: siRNA
Oligonucleotides are given in HELM: sugar(base)linkage, 5' to 3'; d 2'-deoxyribose, r ribose, m 2'-O-methylribose, p phosphate. ss, as = sense and antisense strand
property measured: normalised inhibition (eCFP-eYFP dual reporter)

substance	recorded value
RNA1{r(A)p.r(A)p.r(G)p.r(A)p.r(C)p.r(G)p.r(U)p.r(G)p.r(U)p.r(C)p.r(C)p.r(G)p.r(A)p.r(G)p.r(U)p.r(A)p.r(C)p.r(A)p.r(G)p.d(T)p.d(T)}|RNA2{r(C)p.r(U)p.r(G)p.r(U)p.r(A)p.r(C)p.r(U)p.r(C)p.r(G)p.r(G)p.r(A)p.r(C)p.r(A)p.r(C)p.r(G)p.r(U)p.r(C)p.r(U)p.r(U)p.d(T)p.d(G)}$$$RNA1{StrandType:ss}|RNA2{StrandType:as}$	87.1%
RNA1{r(C)p.r(U)p.r(A)p.r(C)p.r(C)p.r(G)p.r(C)p.r(G)p.r(C)p.r(G)p.r(C)p.r(A)p.r(G)p.r(C)p.r(G)p.r(C)p.r(G)p.r(U)p.r(G)p.d(T)p.d(T)}|RNA2{r(C)p.r(A)p.r(C)p.r(G)p.r(C)p.r(G)p.r(C)p.r(U)p.r(G)p.r(C)p.r(G)p.r(C)p.r(G)p.r(C)p.r(G)p.r(G)p.r(U)p.r(A)p.r(G)p.d(C)p.d(G)}$$$RNA1{StrandType:ss}|RNA2{StrandType:as}$	50.5%
RNA1{r(U)p.r(G)p.r(C)p.r(G)p.r(G)p.r(C)p.r(C)p.r(C)p.r(G)p.r(G)p.r(C)p.r(G)p.r(C)p.r(G)p.r(C)p.r(C)p.r(U)p.r(G)p.r(C)p.d(T)p.d(T)}|RNA2{r(G)p.r(C)p.r(A)p.r(G)p.r(G)p.r(C)p.r(G)p.r(C)p.r(G)p.r(C)p.r(C)p.r(G)p.r(G)p.r(G)p.r(C)p.r(C)p.r(G)p.r(C)p.r(A)p.d(C)p.d(T)}$$$RNA1{StrandType:ss}|RNA2{StrandType:as}$	52.1%
RNA1{r(C)p.r(C)p.r(G)p.r(C)p.r(U)p.r(A)p.r(C)p.r(G)p.r(U)p.r(G)p.r(A)p.r(C)p.r(C)p.r(G)p.r(A)p.r(U)p.r(G)p.r(G)p.r(G)p.d(T)p.d(T)}|RNA2{r(C)p.r(C)p.r(C)p.r(A)p.r(U)p.r(C)p.r(G)p.r(G)p.r(U)p.r(C)p.r(A)p.r(C)p.r(G)p.r(U)p.r(A)p.r(G)p.r(C)p.r(G)p.r(G)p.d(G)p.d(T)}$$$RNA1{StrandType:ss}|RNA2{StrandType:as}$	64.7%
RNA1{r(G)p.r(G)p.r(A)p.r(C)p.r(U)p.r(U)p.r(C)p.r(G)p.r(G)p.r(G)p.r(A)p.r(C)p.r(C)p.r(G)p.r(A)p.r(G)p.r(G)p.r(C)p.r(C)p.d(T)p.d(T)}|RNA2{r(G)p.r(G)p.r(C)p.r(C)p.r(U)p.r(C)p.r(G)p.r(G)p.r(U)p.r(C)p.r(C)p.r(C)p.r(G)p.r(A)p.r(A)p.r(G)p.r(U)p.r(C)p.r(C)p.d(T)p.d(T)}$$$RNA1{StrandType:ss}|RNA2{StrandType:as}$	53.8%
RNA1{r(C)p.r(C)p.r(C)p.r(G)p.r(C)p.r(U)p.r(A)p.r(C)p.r(G)p.r(U)p.r(G)p.r(A)p.r(C)p.r(C)p.r(G)p.r(A)p.r(U)p.r(G)p.r(G)p.d(T)p.d(T)}|RNA2{r(C)p.r(C)p.r(A)p.r(U)p.r(C)p.r(G)p.r(G)p.r(U)p.r(C)p.r(A)p.r(C)p.r(G)p.r(U)p.r(A)p.r(G)p.r(C)p.r(G)p.r(G)p.r(G)p.d(T)p.d(G)}$$$RNA1{StrandType:ss}|RNA2{StrandType:as}$	77.6%
RNA1{r(C)p.r(C)p.r(G)p.r(U)p.r(G)p.r(C)p.r(C)p.r(G)p.r(C)p.r(A)p.r(G)p.r(C)p.r(G)p.r(C)p.r(C)p.r(A)p.r(A)p.r(G)p.r(C)p.d(T)p.d(T)}|RNA2{r(G)p.r(C)p.r(U)p.r(U)p.r(G)p.r(G)p.r(C)p.r(G)p.r(C)p.r(U)p.r(G)p.r(C)p.r(G)p.r(G)p.r(C)p.r(A)p.r(C)p.r(G)p.r(G)p.d(C)p.d(C)}$$$RNA1{StrandType:ss}|RNA2{StrandType:as}$	50.5%
RNA1{r(C)p.r(A)p.r(G)p.r(C)p.r(G)p.r(C)p.r(C)p.r(A)p.r(A)p.r(G)p.r(C)p.r(C)p.r(G)p.r(G)p.r(U)p.r(C)p.r(A)p.r(C)p.r(C)p.d(T)p.d(T)}|RNA2{r(G)p.r(G)p.r(U)p.r(G)p.r(A)p.r(C)p.r(C)p.r(G)p.r(G)p.r(C)p.r(U)p.r(U)p.r(G)p.r(G)p.r(C)p.r(G)p.r(C)p.r(U)p.r(G)p.d(C)p.d(G)}$$$RNA1{StrandType:ss}|RNA2{StrandType:as}$	50.5%
RNA1{r(C)p.r(G)p.r(A)p.r(U)p.r(G)p.r(G)p.r(G)p.r(C)p.r(C)p.r(G)p.r(U)p.r(G)p.r(C)p.r(C)p.r(G)p.r(C)p.r(A)p.r(G)p.r(C)p.d(T)p.d(T)}|RNA2{r(G)p.r(C)p.r(U)p.r(G)p.r(C)p.r(G)p.r(G)p.r(C)p.r(A)p.r(C)p.r(G)p.r(G)p.r(C)p.r(C)p.r(C)p.r(A)p.r(U)p.r(C)p.r(G)p.d(G)p.d(T)}$$$RNA1{StrandType:ss}|RNA2{StrandType:as}$	51%
RNA1{r(G)p.r(C)p.r(G)p.r(A)p.r(C)p.r(C)p.r(U)p.r(A)p.r(G)p.r(U)p.r(G)p.r(G)p.r(G)p.r(C)p.r(C)p.r(C)p.r(G)p.r(A)p.r(C)p.d(T)p.d(T)}|RNA2{r(G)p.r(U)p.r(C)p.r(G)p.r(G)p.r(G)p.r(C)p.r(C)p.r(C)p.r(A)p.r(C)p.r(U)p.r(A)p.r(G)p.r(G)p.r(U)p.r(C)p.r(G)p.r(C)p.d(C)p.d(A)}$$$RNA1{StrandType:ss}|RNA2{StrandType:as}$	66%
